Tested on: NCI-H522
Test: NCI tumour cell line growth inhibition, 48 h
Active and inactive are the calls of the source. Rule as the data show it: active = GI50 up to about 1.1 µM and inactive = higher.
A correct response names exactly one class from active, inactive

>  <molecule>
O=C1CCC2(CC1)Cc1ccccc1C2O (stereo not given)

>  <assay system>
NCI-H522

>  <cat>
inactive

$$$$

## Input Field: outcome | Entry: "CCOc1cc(NC(C)=O)ccc1C(=O)NNS(=O)(=O)c1ccc(NC(C)=O)cc1"
## Output inactive

## Input Query: recorded result category for "O=C(CNc1ccccc1Cl)Nn1c(-c2ccccc2)nc2ccccc2c1=O" in this test
## Output inactive

## Input Tell me the recorded outcome of this test for "O=C1/C(=C/c2cccc([N+](=O)[O-])c2)CCCc2ccccc21" .
## Output inactive

## Input Give the logged outcome of this assay for the following molecule: "CCCCCC(=O)OC[n+]1ccc2c(C)c3[nH]c4ccc(OC)cc4c3c(C)c2c1"
## Output active

## Input # lookup: test call for "Nc1c2c(nc3ccccc13)-c1ccccc1NCCC2"
## Output inactive

## Input Test call, this molecule: "COc1ccc(/C=C/COC(C)=O)cc1OC"
## Output inactive

----------
System: SK-OV-3
Experiment: NCI tumour cell line growth inhibition, 48 h
Active and inactive are the calls of the source. Cut-off read from the data, not from the text of the source: active = GI50 up to about 1.1 µM and inactive = higher.
Respond only with the outcome that fits, drawn from active, inactive

>  <compound>
C/C(=N\N(C)C)c1sc(-n2nc(-c3ccccc3)cc2-c2ccccc2)nc1C

>  <cat>
inactive

$$$$
>  <compound>
COC(=O)CSC1CC(=O)c2c(Cl)sc(Cl)c21 (configuration not stated)

>  <cat>
inactive

$$$$
>  <compound>
C=C1C(O)CC[C@]2(C)C1C1OC(C)(C)O[C@]13CC(=O)C(C)=C([C@H]1OC(C)(C)OC12)C3(C)C (some centres not stated)

>  <cat>
inactive

$$$$
>  <compound>
NC(=O)N/N=C1\CC2C3CC4C2C4C13 (configuration not stated)

>  <cat>
inactive

$$$$
>  <compound>
CC(=O)Nc1cc(/C=C\C(=O)N2CC(CCl)c3c2cc(N)c2ccccc32)n(C)n1 (configuration not stated)

>  <cat>
active

$$$$
>  <compound>
O=C(/C=C/c1ccc2c(c1)OCO2)Cc1nc2ncccc2[nH]c1=O

>  <cat>
inactive

$$$$
>  <compound>
CN1CCN(c2ccc3[nH]c(-c4ccc5[nH]c(-c6ccc(O)cc6)nc5c4)nc3c2)CC1

>  <cat>
inactive

$$$$
>  <compound>
Cc1ccc(OCC2OC(C#N)C(Oc3ccc(C)cc3)C2Oc2ccc(C)cc2)cc1 (configuration not stated)

>  <cat>
inactive

$$$$
>  <compound>
Cc1ccc(/N=N/C(=N\c2ccc(Cl)cc2)c2ccc(N(CCC#N)CCC#N)cc2)cc1

>  <cat>
inactive

$$$$
>  <compound>
O=S(=O)(NNc1ccccc1)c1ccccc1

>  <cat>
inactive

$$$$

## Input Could you check what this test reported for "Nc1ccc2c(c1)S(=O)(=O)c1cc(O)ccc1O2" ?
## Output inactive

## Input Tell me the assay call for COc1cc(C(O)CCBr)c(OC)cc1C (configuration not stated) please.
## Output inactive

## Input Field: outcome | Entry: "S=C(Nc1cc(Cl)c(Cl)cc1Cl)SCc1ccccc1"
## Output inactive

## Input Record lookup: outcome of this test for "COc1ccc(CNc2nc3cc(C(F)(F)F)ccc3nc2-c2ccccc2)cc1OC" ?
## Output inactive

## Input Test call for this compound, please: "CSc1ccc(-c2cc(-c3nc4ccccc4[nH]3)nc3[nH]c(-c4nc5ccccc5[nH]4)cc(=O)c23)cc1"
## Output inactive

## Input Name the outcome recorded for "Cc1nc2ccc(NCCN(C)C)c3c(=O)c4ccccc4n1c23" in the assay.
## Output inactive

## Input Would you mind telling me which call this test gave CC1(c2ccc(Cl)cc2)C2C(=O)NC(=O)C1C(=O)NC2=O (configuration not stated) ?
## Output inactive

## Input Per the assay record, what outcome was assigned to CCCCCCCCCCCCCCCCCCNc1ccn(C2OC(COP(=O)(O)OCC3OC(n4cc(C)c(=O)[nH]c4=O)CC3O)C(O)C2O)c(=O)n1 (configuration not stated) ?
## Output inactive

## Input Fill in: this test's call for O=c1ccc2cc(O)c(O)cc2o1 [ESCULETIN] is ___
## Output inactive

## Input Hello, I am checking results. What call was entered for "Cc1ccc(S(=O)(=O)n2cc(-c3cc(C(F)(F)F)ccn3)c3cc(Br)ccc32)cc1" ?
## Output inactive

## Input Lab log entry: "COc1ccccc1NC(=S)Nc1cccc(C)n1" — outcome as called in the assay?
## Output inactive

Each recorded value in this set is attributed to ChEMBL document CHEMBL1201862.
